Numbers sourced from patent US8461328B2.

So I've got a bunch of compounds here, and I need their Ki values.
Target: JAK1 (Homo sapiens)
Construct: made in house; host or cells: SF9 insect cells (baculovirus)
Assay: JAK1 inhibition (Table 4)
Assay type: biochemical
Conditions: read-out: JAK1 Ki
Reply numerically in nM, unit not repeated.

Note to self: Ki recorded for Cc1nc2cnc3[nH]ccc3c2n1C1CC1 was 83.4

Note to self: Ki recorded for C[C@H](O)c1nc2cnc3[nH]ccc3c2n1C1CCOCC1 was 82.6

Note to self: Ki recorded for O=C(N1CCC[C@@H](n2cnc3cnc4[nH]ccc4c32)C1)C1(C(F)(F)F)CC1 was 15.8

Note to self: Ki recorded for CC1CN(Cc2cncnc2)CCC1n1cnc2cnc3[nH]ccc3c21 (racemic) [Example 343] was 5.71

Note to self: Ki recorded for CC(C)NC(=O)[C@H]1CC[C@H](n2nnc3cnc4[nH]ccc4c32)CC1 was 48.9

Note to self: Ki recorded for N#Cc1ccc(N2CCC(n3cnc4cnc5[nH]ccc5c43)CC2)nc1 was 12.2

Note to self: Ki recorded for N#CCCN1CCC(n2c(CC3CC3)nc3cnc4[nH]ccc4c32)CC1 was 9.88

Note to self: Ki recorded for CC(C)(C)OC(=O)N[C@@H]1CC[C@@H](n2nnc3cnc4[nH]ccc4c32)C1 was 1.76

Note to self: Ki recorded for FC(F)(F)CCN1CCC(n2cnc3cnc4[nH]ccc4c32)CC1 was 3.89

Note to self: Ki recorded for O=C(N[C@H]1CC[C@H](n2cnc3cnc4[nH]ccc4c32)CC1)OCC1CC1 was 5.16

Note to self: Ki recorded for CS(=O)(=O)Cc1nc2cnc3[nH]ccc3c2n1C1CCN(CCC#N)CC1 was 9.7

Note to self: Ki recorded for CC(O)c1nc2cnc3[nH]ccc3c2n1C1CCN(Cc2cccc(C#N)c2)CC1 (racemic) was 2.13

Note to self: Ki recorded for CNC(=O)c1nc2cnc3[nH]ccc3c2n1C1CCN(Cc2ccccc2)CC1 was 20.6

Note to self: Ki recorded for N#C[C@H]1CC[C@H](n2c(CO)nc3cnc4[nH]ccc4c32)CC1 was 2.06

Note to self: Ki recorded for N#CCCN1CCC(n2c(C(F)(F)F)nc3cnc4[nH]ccc4c32)CC1 was 7.86

Note to self: Ki recorded for COC[C@H]1CC[C@H](n2c(CO)nc3cnc4[nH]ccc4c32)CC1 was 3.82

Note to self: Ki recorded for O=C(N[C@H]1CC[C@H](n2cnc3cnc4[nH]ccc4c32)CC1)N1CCOCC1 was 27.1

Note to self: Ki recorded for CC(C)(C#N)C(=O)N1CCC[C@@H](n2cnc3cnc4[nH]ccc4c32)C1 was 3.91

Note to self: Ki recorded for CS(=O)(=O)c1cccc(CN2CCC(n3cnc4cnc5[nH]ccc5c43)CC2)c1 was 0.64

Note to self: Ki recorded for N#Cc1ccccc1CN1CCC[C@@H](n2cnc3cnc4[nH]ccc4c32)C1 was 34.4

Note to self: Ki recorded for CC(C)(O)Cc1nc2cnc3[nH]ccc3c2n1C1CCN(CCC#N)CC1 was 13.9

Note to self: Ki recorded for CCS(=O)(=O)N1CCC(n2cnc3cnc4[nH]ccc4c32)CC1 was 2.87

Note to self: Ki recorded for N#CCCN1CCCCC(n2cnc3cnc4[nH]ccc4c32)C1 (racemic) was 10.9

Note to self: Ki recorded for N#CCCN1CCC(n2c(CCn3cccn3)nc3cnc4[nH]ccc4c32)CC1 was 17.6

Note to self: Ki recorded for O=C(NCc1nc2cnc3[nH]ccc3c2n1C1CCCCC1)C1CCC1 was 17.7

Note to self: Ki recorded for OCc1nc2cnc3[nH]ccc3c2n1C1CCOCC1 was 18.2

Note to self: Ki recorded for COC(=O)N[C@H]1CC[C@H](n2c(CO)nc3cnc4[nH]ccc4c32)CC1 was 2.73

Note to self: Ki recorded for N#CCCN1CCC(n2c(CF)nc3cnc4[nH]ccc4c32)CC1 was 0.66

Note to self: Ki recorded for CN(C)C(=O)CN1CCC[C@@H](n2cnc3cnc4[nH]ccc4c32)C1 was 135

Note to self: Ki recorded for CC(CC#N)N1CCC(n2c(CC3CC3)nc3cnc4[nH]ccc4c32)CC1 (racemic) was 9.49

Note to self: Ki recorded for CC1(n2nnc3cnc4[nH]ccc4c32)CCN(S(=O)(=O)c2cccnc2)CC1 was 37

Note to self: Ki recorded for CC(O)c1nc2cnc3[nH]ccc3c2n1C1CCN(Cc2ccnc(C#N)c2)CC1 (racemic) was 6.44

Note to self: Ki recorded for O[C@H]1CC[C@H](n2cnc3cnc4[nH]ccc4c32)C1 was 15.3

Note to self: Ki recorded for O=C(C1CC1F)N1CCC[C@@H](n2cnc3cnc4[nH]ccc4c32)C1 (mixture of isomers) was 4.37

Note to self: Ki recorded for C[C@@H](O)c1nc2cnc3[nH]ccc3c2n1C1CCC(C#N)CC1 (some centres unmarked) was 0.99

----------
Target: JAK1 (Homo sapiens, UniProt P23458)
Construct: made in house; host or cells: SF9 insect cells (baculovirus)
Sequence (P23458 852-1154): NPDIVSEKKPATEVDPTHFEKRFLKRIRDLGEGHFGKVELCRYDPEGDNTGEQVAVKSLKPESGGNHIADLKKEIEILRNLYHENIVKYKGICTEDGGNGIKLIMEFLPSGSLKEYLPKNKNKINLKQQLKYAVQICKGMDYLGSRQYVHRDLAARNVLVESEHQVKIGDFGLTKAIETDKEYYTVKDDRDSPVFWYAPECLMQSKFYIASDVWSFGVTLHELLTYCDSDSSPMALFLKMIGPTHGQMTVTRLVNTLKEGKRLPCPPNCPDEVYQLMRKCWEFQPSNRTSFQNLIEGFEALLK
Experiment: JAK1 inhibition (Table 4)
Type: biochemical
Conditions: read-out: JAK1 Ki
So I've got a bunch of molecules here, and I need their log10 Ki values.
Note: values are log10 of Ki expressed in nM.

Note to self: log10 Ki recorded for Cc1nc2cnc3[nH]ccc3c2n1C1CN2CCC1CC2 (stereo not drawn) [Example 928] was 2.10

Note to self: log10 Ki recorded for CN(CC(F)(F)F)C(=O)NC1CCC(n2cnc3cnc4[nH]ccc4c32)CC1 (stereo not drawn) [Example 745] was 0.51

Note to self: log10 Ki recorded for O[C@@H]1CC[C@@H](n2cnc3cnc4[nH]ccc4c32)C1 [Example 711] was 1.15

Note to self: log10 Ki recorded for Cc1nc2cnc3[nH]ccc3c2n1C1CCC(N2CCC(F)(F)CC2)CC1 (stereo not drawn) [Example 767] was 0.45

Note to self: log10 Ki recorded for CS(=O)(=O)CCN1CCC[C@@H](n2cnc3cnc4[nH]ccc4c32)C1 [Example 57] was 0.72

Note to self: log10 Ki recorded for c1cc2c(ncc3ncn(CC4CCNC4)c32)[nH]1 (racemic) [Example 490] was 2.59

Note to self: log10 Ki recorded for Cc1nc2cnc3[nH]ccc3c2n1C1CCC(NC(=O)CC(F)(F)F)C1 (racemic) [Example 730] was 0.17

Note to self: log10 Ki recorded for Cc1nc2cnc3[nH]ccc3c2n1C(C)C1CCCO1 (single isomer, unassigned) [Example 426] was 1.78

Note to self: log10 Ki recorded for Cc1ncc(CN2CCC(n3c([C@@H](C)O)nc4cnc5[nH]ccc5c43)CC2)n1C [Example 830] was 2.04

Note to self: log10 Ki recorded for N#CCCN1CCC(n2c(CNC(=O)c3cccnc3)nc3cnc4[nH]ccc4c32)CC1 [Example 494] was 0.67

Note to self: log10 Ki recorded for FC(F)(F)c1nc2cnc3[nH]ccc3c2n1C1CCNCC1 [Example 254] was 1.84

Note to self: log10 Ki recorded for N#CCCN1CCC(n2c(Cc3cccnc3)nc3cnc4[nH]ccc4c32)CC1 [Example 403] was 1.01

Note to self: log10 Ki recorded for CC(C)(C)OC(=O)N1CCC[C@@H]1CN[C@H]1CC[C@H](n2cnc3cnc4[nH]ccc4c32)CC1 [Example 556] was 1.78

Note to self: log10 Ki recorded for c1ccc(CN2CCC(n3c(C4CCOCC4)nc4cnc5[nH]ccc5c43)CC2)cc1 [Example 154] was 1.18

Note to self: log10 Ki recorded for N#CCCN1CCC(n2c(CC(=O)NC3CCCC3)nc3cnc4[nH]ccc4c32)CC1 [Example 268] was 0.70

Note to self: log10 Ki recorded for CC1(n2cnc3cnc4[nH]ccc4c32)CCN(Cc2cccc(C#N)c2)CC1 [Example 754] was 1.61

Note to self: log10 Ki recorded for Cc1cnn(CCc2nc3cnc4[nH]ccc4c3n2C2CCN(CCC#N)CC2)c1 [Example 413] was 1.32

Note to self: log10 Ki recorded for COC(=O)N1CCCC(n2c([C@@H](C)O)nc3cnc4[nH]ccc4c32)C1 (stereo partly drawn) [Example 670] was 2.60

Note to self: log10 Ki recorded for O=C(C1CC1)N1CCC[C@@H](n2cnc3cnc4[nH]ccc4c32)C1 [Example 75] was 0.77

Note to self: log10 Ki recorded for CC(O)c1nc2cnc3[nH]ccc3c2n1CC1CCCO1 (stereo not drawn) [Example 699] was 2.37

Note to self: log10 Ki recorded for N#Cc1cccc(CN2CC[C@@H](n3cnc4cnc5[nH]ccc5c43)C2)c1 [Example 436] was 0.95

----------
Biological target: JAK1 (Homo sapiens)
Construct: made in house; host or cells: SF9 insect cells (baculovirus)
Assay: JAK1 inhibition (Table 4)
Format: biochemical
Conditions: read-out: JAK1 Ki
Ki vs 8 nM: less than gives T; not less than gives F.

Req: Determine if CC1CN(CCC#N)CCC1n1cnc2cnc3[nH]ccc3c21 (racemic) [Example 324] shows Ki strictly lower than 8 nM.
Resp: T

Req: Determine if CC1(n2cnc3cnc4[nH]ccc4c32)CCN(Cc2ccnc(C#N)c2)CC1 shows Ki strictly lower than 8 nM.
Resp: F

Req: Determine if CC(C)(C#N)C(=O)N1CC[C@@H](n2cnc3cnc4[nH]ccc4c32)C1 shows Ki strictly lower than 8 nM.
Resp: F

Req: Determine if N#Cc1nc2cnc3[nH]ccc3c2n1C1CCNCC1 shows Ki strictly lower than 8 nM.
Resp: F

Req: Determine if CC(C)(O)c1nc2cnc3[nH]ccc3c2n1C1CCNCC1 shows Ki strictly lower than 8 nM.
Resp: F

Req: Determine if OCc1nc2cnc3[nH]ccc3c2n1C1CC2CCC1O2 (single isomer, unassigned) [Example 851] shows Ki strictly lower than 8 nM.
Resp: F

Req: Determine if Cc1nc2cnc3[nH]ccc3c2n1C1CCc2nc[nH]c2C1 (racemic) shows Ki strictly lower than 8 nM.
Resp: F

Req: Determine if C[C@@H](O)c1nc2cnc3[nH]ccc3c2n1[C@@H]1CCCN(C(=O)C2CCCC2)C1 shows Ki strictly lower than 8 nM.
Resp: F

Req: Determine if N#Cc1ccc(CN2CC[C@@H](n3cnc4cnc5[nH]ccc5c43)C2)cc1 shows Ki strictly lower than 8 nM.
Resp: T

Req: Determine if CCN1CC[C@@H](n2cnc3cnc4[nH]ccc4c32)[C@@H](F)C1 shows Ki strictly lower than 8 nM.
Resp: F

Req: Determine if CC(=O)N(C)CCc1nc2cnc3[nH]ccc3c2n1C1CCN(C(C)CC#N)CC1 (racemic) shows Ki strictly lower than 8 nM.
Resp: F

Req: Determine if COC1CCC(C(=O)N2CCCC(n3c(C(C)O)nc4cnc5[nH]ccc5c43)C2)CC1 (stereo not shown) shows Ki strictly lower than 8 nM.
Resp: F

Req: Determine if CC(=O)N1CCC(c2nc3cnc4[nH]ccc4c3n2C2CCN(CCC#N)CC2)C1 (racemic) shows Ki strictly lower than 8 nM.
Resp: F

Req: Determine if N#CCCN1CCC(n2c(CC(=O)N3CCOCC3)nc3cnc4[nH]ccc4c32)CC1 shows Ki strictly lower than 8 nM.
Resp: F

Req: Determine if c1cc2c(ncc3ncn(C4CCc5[nH]ncc5C4)c32)[nH]1 (stereo not shown) shows Ki strictly lower than 8 nM.
Resp: T

Req: Determine if COc1nc2cnc3[nH]ccc3c2n1C1CCN(CCC#N)CC1 shows Ki strictly lower than 8 nM.
Resp: T

Req: Determine if COCC(=O)NCc1nc2cnc3[nH]ccc3c2n1C1CCN(CCC#N)CC1 shows Ki strictly lower than 8 nM.
Resp: T

Req: Determine if OC1CCCC(n2cnc3cnc4[nH]ccc4c32)C1 (single isomer, unassigned) [Example 562] shows Ki strictly lower than 8 nM.
Resp: T

Req: Determine if CN(C)CC(=O)N1CCC[C@@H](n2cnc3cnc4[nH]ccc4c32)C1 shows Ki strictly lower than 8 nM.
Resp: F

Req: Determine if OC1CCCC(n2nnc3cnc4[nH]ccc4c32)C1 (single isomer, unassigned) [Example 553] shows Ki strictly lower than 8 nM.
Resp: F

Req: Determine if OC(CN1CCC(n2cnc3cnc4[nH]ccc4c32)CC1)(C(F)(F)F)C(F)(F)F shows Ki strictly lower than 8 nM.
Resp: T

Req: Determine if Cc1nc2cnc3[nH]ccc3c2n1C1CCc2cn[nH]c2C1 (racemic) shows Ki strictly lower than 8 nM.
Resp: F

Req: Determine if OCc1nc2cnc3[nH]ccc3c2n1C1CCNCC1 shows Ki strictly lower than 8 nM.
Resp: T

Req: Determine if CC(C)CS(=O)(=O)NCc1nc2cnc3[nH]ccc3c2n1C1CCN(CCC#N)CC1 shows Ki strictly lower than 8 nM.
Resp: T

Req: Determine if Cc1nc2cnc3[nH]ccc3c2n1C1(C)CCN(CCC#N)CC1 shows Ki strictly lower than 8 nM.
Resp: F

Req: Determine if O=C(Cc1ccccc1)N1CCC[C@@H](n2cnc3cnc4[nH]ccc4c32)C1 shows Ki strictly lower than 8 nM.
Resp: F

Req: Determine if C[C@]1(O)CC[C@@H](n2nnc3cnc4[nH]ccc4c32)CC1 shows Ki strictly lower than 8 nM.
Resp: T

Req: Determine if CCNC(=O)Cc1nc2cnc3[nH]ccc3c2n1C1CCCOC1 (racemic) shows Ki strictly lower than 8 nM.
Resp: F

Req: Determine if CC(C(=O)N1CCC(n2cnc3cnc4[nH]ccc4c32)CC1)N(C)C (racemic) shows Ki strictly lower than 8 nM.
Resp: F

Req: Determine if N#CCCNC1CC(n2cnc3cnc4[nH]ccc4c32)C1 (stereo not shown) shows Ki strictly lower than 8 nM.
Resp: T

Req: Determine if CC(C)(C)OC(=O)N1CCCC[C@H]1CN[C@H]1CC[C@H](n2cnc3cnc4[nH]ccc4c32)CC1 shows Ki strictly lower than 8 nM.
Resp: F

Req: Determine if CC1(COC(=O)N[C@H]2CC[C@H](n3cnc4cnc5[nH]ccc5c43)CC2)CC1 shows Ki strictly lower than 8 nM.
Resp: T

Req: Determine if CC(O)c1nc2cnc3[nH]ccc3c2n1C1CCN(Cc2ccccc2)CC1 (racemic) shows Ki strictly lower than 8 nM.
Resp: T

Req: Determine if O=C(CC(F)(F)F)NC1CCC(n2cnc3cnc4[nH]ccc4c32)C1 (racemic) shows Ki strictly lower than 8 nM.
Resp: T
